Reference source: ChEMBL document CHEMBL1201862

system: OVCAR-4; assay: NCI tumour cell line growth inhibition, 48 h
The source made the active and inactive calls. No stated cut-off is given here; in the data, active = GI50 up to about 1.1 µM and inactive = higher.
Outcomes: yes = active, no = inactive

ClC1=C(Cl)C2OC3C=CCC3OC2C(Cl)=C1Cl (configuration not stated)	no
CC(=O)NC1C(OCc2ccccc2)OC(CO)C(O)C1OC(C)C(=O)NC(C)C(=O)NC(CCC(=O)NCCCCNc1c2ccccc2nc2cccc([N+](=O)[O-])c12)C(N)=O (configuration not stated)	yes
COC1(OC)C=CC(=O)C=C1	no
CC(=O)O[C@H]1CC[C@H]2[C@@H]3CCC(C(C)=O)[C@H](C(=O)O)[C@H]3CC[C@]12C (some centres not stated)	no
Cc1nn2c(C(=O)N/N=C/c3ccccc3O)c(C)nc2s1	no
O=[N+]([O-])c1ccc(C2=Nc3ccccc3[S+]([O-])C(c3ccccc3)C2)cc1 (configuration not stated)	no
CC(=O)OC/C=C(\C)CCC(Br)C(C)(C)Br (configuration not stated)	no
CCN(CC)CCC1CCCCN1CC(=O)N1c2ccccc2NC(=O)c2ccccc21 (configuration not stated)	no
O=C(CN1CCN(C(=O)OCc2ccccc2)CCN(CC(=O)N2CCCCC2)CCN(C(=O)OCc2ccccc2)CC1)N1CCCCC1	no
C#CCNC(CCCNC(=N)N)C(=O)O (configuration not stated)	no
CCCCOCn1c(=O)[nH]c(=O)c2ccccc21	no
O=C1[C@H]2ON(c3ccccc3)C(c3ccco3)[C@H]2C(=O)N1c1ccc(Cc2ccc(N3C(=O)[C@@H]4ON(c5ccccc5)C(c5ccco5)[C@@H]4C3=O)cc2)cc1 (some centres not stated)	no
CCCc1cc2c(cc1O)CC[C@@H]1[C@@H]2CC[C@]2(C)[C@@H](O)CC[C@@H]12	no
CC(=O)CC(=O)Nn1c(-c2cccs2)nc2ccc(I)cc2c1=O	no
COC(=O)CC(=O)OC1C[C@@H]2CCC3C(C)(C)CCC[C@]3(C)C23CC[C@@]1(C)C3 (some centres not stated)	no
c1ccc(C2N3CCCCC3[C@@H]3c4[nH]c5ccccc5c4CCN23)nc1 (some centres not stated)	no
O=C1C(Br)=C(c2ccccc2)C(c2ccccc2)=C1c1ccccc1	no
